method_notes: Thermal stability by Thermogravimetric Analysis (TGA)
Assay type: physicochemical
cond: by intersection points of tangents
property: T onset (C)

compound	units_label	T onset
CCOC(=O)C1CSC2=C(CC(C)(C)C/C2=N\c2ccc(OCc3ccccc3)cc2)N1 (stereo not shown)	C	168.9
CCOC(=O)C1CSC2=C(CC(C)(C)C/C2=N\c2ccc(Cn3cncn3)cc2)N1 (stereo not shown)	C	200.2
CCOC(=O)CNC1=C/C(=N/c2ccc(C(C)=O)cc2)CC(C)(C)C1	C	188.0
CCOC(=O)CNC1=C/C(=N/c2ccc(Cn3cncn3)cc2)CC(C)(C)C1	C	205.0

###

method_notes: SPF in vitro / UVA PF from UV transmittance through thin film on PMMA plates
cond: P (after irradiation, 800 J/m^2-eff)
property: SPF P
No unit in the answer, please; the number alone is enough.

Example entries and their recorded answers appear below.
molecule	SPF P
CCOC(=O)CNC1=C/C(=N/c2ccc(-c3ccccc3)cc2)CC(C)(C)C1 [Formula 31]	30.52
CCOC(=O)CNC1=C/C(=N/c2ccc(/N=N/c3ccccc3)cc2)CC(C)(C)C1 [Formula 33]	33.16
COc1ccc(NC2C=C(NCC(=O)O)CC(C)(C)C2)cc1 (centres unmarked) [Formula 73]	27.60
CCOC(=O)C1CSC2=C(CC(C)(C)C/C2=N\c2ccc(/N=N/c3ccccc3)cc2)N1 (centres unmarked) [Formula 15]	27.34

SPF P for CCOC(=O)CNC1=C/C(=N/c2ccc(/N=N/c3ccc([N+](=O)[O-])cc3)cc2)CC(C)(C)C1 [Formula 35] is 17.94

SPF P for CCOC(=O)CNC1=CC(Nc2ccc(OC)cc2)CC(C)(C)C1 (centres unmarked) [Formula 72] is 21.12

SPF P for COC(=O)C1CSC2=C(CC(C)(C)C/C2=N\c2ccc(OC)cc2)N1 (centres unmarked) [Formula 43] is 18.59

SPF P for CCOC(=O)C1CSC2=C(CC(C)(C)C/C2=N\c2ccc(-c3ccccc3)cc2)N1 (centres unmarked) [Formula 19] is 24.31

###

method_notes: Thermal stability by Thermogravimetric Analysis (TGA)
Type: physicochemical
cond: 210 (° C.)
property: Residual weight % at different temperatures (w %)

compound	recorded_result
CCOC(=O)C1CSC2=C(CC(C)(C)C/C2=N\c2ccc(OCc3ccccc3)cc2)N1 (stereo not drawn) [Formula 60]	77.0
COC(=O)C(Cc1ccccc1)NC1=C/C(=N/c2ccc(F)cc2)CC(C)(C)C1 (stereo not drawn) [Formula 67]	82.0
CCOC(=O)CNC1=C/C(=N/c2ccccc2)CC(C)(C)C1 [Formula 46]	98.4
CCOC(=O)C1CSC2=C(CC(C)(C)C/C2=N\c2ccc(N3CCOCC3)cc2)N1 (stereo not drawn) [Formula 62]	75.8
CCOC(=O)C1CSC2=C(CC(C)(C)C/C2=N\c2ccc(Oc3ccccc3)cc2)N1 (stereo not drawn) [Formula 61]	92.6
CCOC(=O)CNC1=C/C(=N/c2ccc(Nc3ccccc3)cc2)CC(C)(C)C1 [Formula 47]	99.0
CCOC(=O)C1CSC2=C(CC(C)(C)C/C2=N\c2ccc(Cn3cncn3)cc2)N1 (stereo not drawn) [Formula 65]	89.3
CCOC(=O)CNC1=C/C(=N/c2ccc(N(C)C)cc2)CC(C)(C)C1 [Formula 52]	86.0
CCOC(=O)C1CSC2=C(CC(C)(C)CC2Nc2ccccc2)N1 (stereo not drawn) [Formula 77]	83.8
CCOC(=O)C1CSC2=C(CC(C)(C)C/C2=N\c2ccc(Nc3ccccc3)cc2)N1 (stereo not drawn) [Formula 64]	80.3
CCOC(=O)CNC1=C/C(=N/c2ccc(OCc3ccccc3)cc2)CC(C)(C)C1 [Formula 49]	97.2
CCOC(=O)CNC1=C/C(=N/c2ccc(OC(F)(F)F)cc2)CC(C)(C)C1 [Formula 53]	86.3
CCOC(=O)CNC1=C/C(=N/c2ccc(NC(=O)OC(C)(C)C)cc2)CC(C)(C)C1 [Formula 54]	72.7
CCOC(=O)CNC1=C/C(=N/c2ccc(C(C)=O)cc2)CC(C)(C)C1 [Formula 51]	85.8
CCOC(=O)CNC1=C/C(=N/c2ccc(N3CCOCC3)cc2)CC(C)(C)C1 [Formula 48]	97.8
CCCCCCCCOc1ccc(/N=C2/C=C(NC(Cc3ccccc3)C(=O)OC)CC(C)(C)C2)cc1 (stereo not drawn) [Formula 69]	88.0
COC(=O)C(Cc1ccccc1)NC1=C/C(=N/c2ccc(OC)cc2)CC(C)(C)C1 (stereo not drawn) [Formula 68]	87.3
CCOC(=O)CNC1=C/C(=N/c2ccc(Cn3cncn3)cc2)CC(C)(C)C1 [Formula 55]	92.2
CCOC(=O)CNC1=C/C(=N/c2ccc(Oc3ccccc3)cc2)CC(C)(C)C1 [Formula 50]	97.9
CCOC(=O)CNC1=C/C(=N/c2ccc3c(c2)OCCO3)CC(C)(C)C1 [Formula 56]	94.3
C#Cc1ccc(/N=C2\CC(C)(C)CC3=C2SCC(C(=O)OCC)N3)cc1 (stereo not drawn) [Formula 63]	88.4
